Values were extracted from PubChem BioAssay AID1159580.

assay: chemical genetic growth profiling, strain panel (AID 1159580);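 also: tested at 20 µM; growth read once vehicle control cultures reached saturation at 30 °C; 1 = growth at the plate median or of vehicle wells; lower values mean less growth of the strain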; details: S. cerevisiae deletion strains, growth OD, locus YJL115W, strain asf1, active compounds read low
The whole screen tested about 5,500 compounds, of which about 2,000 (36%) were called active. Inconclusive results (about 18%) are left out. Some of the results follow.

[
  {
    "compound": "CN(C)c1ccc2nc3ccc(=[N+](C)C)cc-3sc2c1",
    "normalized growth": 1.07
  },
  {
    "compound": "OC1CC2CCCC(C1)N2Cc1ccccc1 (stereo unspecified)",
    "normalized growth": 1
  },
  {
    "compound": "COc1cc(OC)c2c(=O)c(O)c(-c3ccc(OC)c(OC)c3)oc2c1",
    "normalized growth": 0.973
  },
  {
    "compound": "COc1ccc(-c2cc(=O)c3c(O)cc(O[C@H]4O[C@H](CO[C@@H]5O[C@@H](C)[C@H](O)[C@@H](O)[C@H]5O)[C@@H](O)[C@H](O)[C@H]4O)cc3o2)cc1",
    "normalized growth": 1
  },
  {
    "compound": "CN1C[C@H](C(=O)N[C@]2(C)O[C@@]3(O)[C@@H]4CCCN4C(=O)[C@H](Cc4ccccc4)N3C2=O)C[C@@H]2c3cccc4[nH]cc(c34)C[C@H]21",
    "normalized growth": 0.983
  },
  {
    "compound": "CC(C)c1c(O)ccc2c1CCC1[C@@](C)(C=O)CCC[C@]21C (stereo partly specified)",
    "normalized growth": 1.02
  }
]

====

assay: chemical genetic growth profiling, strain panel (AID 1159580);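 also: tested at 20 µM; growth read once vehicle control cultures reached saturation at 30 °C; 1 = growth at the plate median or of vehicle wells; lower values mean less growth of the strain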; conditions: S. cerevisiae deletion strains, growth OD, locus YCL016C, strain dcc1, active compounds read low
About 2,000 (36%) of roughly 5,500 compounds were called active. Roughly 18% stayed inconclusive and do not appear here. The list shows a part of the results.
measuredEndpoint: normalized growth

[
  {
    "molecule": "COC(=O)[C@@]1(C)CCC[C@]2(C)c3ccc(O)c(C(C)C)c3CCC12 (some centres undefined)",
    "result": "0.847 (active)"
  },
  {
    "molecule": "CC(=O)Oc1ccc2c(c1C(C)C)CCC1C(C)(C)CCC[C@]21C (some centres undefined)",
    "result": "1.02 (inactive)"
  },
  {
    "molecule": "CC(C)c1c(O)ccc2c1CCC1[C@@](C)(CO)CCC[C@]21C (some centres undefined)",
    "result": "1.02 (inactive)"
  },
  {
    "molecule": "CC(C)c1c(O)ccc2c1CCC1[C@@](C)(C=O)CCC[C@]21C (some centres undefined)",
    "result": "0.803 (active)"
  }
]

====

test: chemical genetic growth profiling, strain panel (AID 1159580);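 also: tested at 20 µM; growth read once vehicle control cultures reached saturation at 30 °C; 1 = growth at the plate median or of vehicle wells; lower values mean less growth of the strain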; conditions: S. cerevisiae deletion strains, growth OD, locus YDR162C, strain NBP2
Among all 5,500 compounds or so, about 2,000 (36%) were called active. Inconclusive results (about 18%) are left out. Cut-off read from the data, not from the text of the source: active = normalized growth mostly below about 0.91 (no sharp cut-off); inconclusive = no clear call, values can overlap the other calls; inactive = mostly above about 0.92. The list shows a part of the results.
Outcome codes: y (active), n (inactive)

[
  {
    "compound": "CC(=O)Oc1ccc2c(c1C(C)C)CCC1C(C)(C)CCC[C@]21C (some centres undefined)",
    "assignedClass": "n"
  },
  {
    "compound": "COc1ccc2c(c1)CCC1C2CC[C@@]2(C)C1CC[C@@H]2O (some centres undefined)",
    "assignedClass": "y"
  },
  {
    "compound": "CC(=O)OCC1=C(C(=O)O)N2C(=O)[C@@H](NC(=O)Cc3cccs3)[C@H]2SC1",
    "assignedClass": "n"
  },
  {
    "compound": "COC(=O)[C@]1(C)CCC[C@]2(C)c3ccc(C(C)C)cc3C(=O)CC12 (some centres undefined)",
    "assignedClass": "n"
  }
]
